# System: NSCLC
# Assay notes: NCI 60 cell panel, five-concentration assay, NSCLC subpanel
# Format: cell-based
# Particulars: total growth inhibition; 48 h exposure
Structures can show the parent of a compound that is named as a salt.
Quantity name: TGI NSCLC (µM)

- Molecule: "CN(C)c1ccc2[nH]c(Cl)c(/C=C3/C(=O)Nc4ccc(O)cc43)c2c1"
  Quantity name: "TGI NSCLC"
  Readout units: "µM"
  Reported: 31.62
- Molecule: "COc1cc2c(/C=C3/C(=O)Nc4ccc(Br)cc43)c(Cl)n(C)c2cc1C"
  Quantity name: "TGI NSCLC"
  Readout units: "µM"
  Reported: 9.33
- Molecule: "CN(C)c1ccc2[nH]c(Cl)c(/C=C3/C(=O)Nc4ccc(Cl)cc43)c2c1"
  Quantity name: "TGI NSCLC"
  Readout units: "µM"
  Reported: 10.00
- Molecule: "CC[C@]1(O)C[C@H]2CN(CCc3c([nH]c4ccccc34)[C@@](C(=O)OC)(c3cc4c(cc3OC)N(C=O)[C@H]3[C@@](O)(C(=O)OC)[C@H](OC(C)=O)[C@]5(CC)C=CCN6CC[C@]43[C@@H]65)C2)C1 [Vincristine sulfate, reference compound]"
  Quantity name: "TGI NSCLC"
  Readout units: "µM"
  Reported: 15.85
- Molecule: "COc1cc2c(/C=C3/C(=O)Nc4cc(Cl)ccc43)c(Cl)n(C)c2cc1C"
  Quantity name: "TGI NSCLC"
  Readout units: "µM"
  Reported: 11.48
- Molecule: "COc1cc2c(cc1C)N(C)C(=O)/C2=C/c1c(Cl)n(C)c2cc(C)c(OC)cc12"
  Quantity name: "TGI NSCLC"
  Readout units: "µM"
  Reported: 69.18
- Molecule: "COc1cc2c(cc1C)N(C)C(=O)/C2=C/c1c(Cl)[nH]c2ccccc12"
  Quantity name: "TGI NSCLC"
  Readout units: "µM"
  Reported: 12.30
- Molecule: "COc1cc2c(cc1C)NC(=O)/C2=C/c1c(Cl)n(C)c2cc(C)c(OC)cc12"
  Quantity name: "TGI NSCLC"
  Readout units: "µM"
  Reported: 97.72
- Molecule: "COc1cc2c(/C=C3/C(=O)N(C)c4ccccc43)c(Cl)n(C)c2cc1C"
  Quantity name: "TGI NSCLC"
  Readout units: "µM"
  Reported: 33.11
- Molecule: "COc1ccc2c(c1)/C(=C\\c1c(Cl)[nH]c3ccc(N(C)C)cc13)C(=O)N2"
  Quantity name: "TGI NSCLC"
  Readout units: "µM"
  Reported: 15.49
- Molecule: "COc1cc2c(/C=C3/C(=O)N(C)c4ccc(O)cc43)c(Cl)n(C)c2cc1C"
  Quantity name: "TGI NSCLC"
  Readout units: "µM"
  Reported: 6.03
- Molecule: "COc1cc2c(/C=C3/C(=O)Nc4ccc(Br)cc43)c(Cl)[nH]c2cc1C"
  Quantity name: "TGI NSCLC"
  Readout units: "µM"
  Reported: 14.13
- Molecule: "COc1cc2c(/C=C3/C(=O)Nc4cc(Cl)ccc43)c(Cl)[nH]c2cc1C"
  Quantity name: "TGI NSCLC"
  Readout units: "µM"
  Reported: 11.48
- Molecule: "COc1cc2c(/C=C3/C(=O)Nc4ccc(N(C)C)cc43)c(Cl)n(C)c2cc1C"
  Quantity name: "TGI NSCLC"
  Readout units: "µM"
  Reported: 91.20
